tested on: WEEV replicon; assay: microbe, parasite or virus in culture; conditions: Western equine encephalitis virus, BSR-T7, read-out: IC50, inhibition of luciferase expression in the WEEV replicon assay

SUBSTANCE_SMILES	UNIT_OF_MEASUREMENT	SIGN_QUALIFIER	IC50
C[C@H](c1ccc(F)cc1)n1c(C(=O)N2CCC(C(=O)NCc3ccccc3)CC2)cc2sccc21	µM	=	18.4
O=C(NCc1ccccc1)C1CCN(C(=O)c2cc3sccc3n2Cc2ccc(Cl)cc2)CC1	µM	=	10.1
C[C@@H](NC(=O)C1CCN(C(=O)c2cc3sccc3n2Cc2ccc(F)cc2)CC1)c1ccccc1	µM	=	8.3
O=C(Nc1ccccc1)C1CCN(C(=O)c2cc3ccccc3n2Cc2ccc(Cl)cc2)CC1	µM	>	50

----------
system: WEEV replicon
Collected CC50/IC50 (therapeutic index) values appear next to each entry.
PARAMETER_MEASURED: CC50/IC50 (therapeutic index)

MOLECULE	OBSERVED
O=C(NCc1ccccc1)C1CCCN(C(=O)c2cc3ccccc3n2Cc2ccc(Cl)cc2)C1 (stereo not shown) [Compound 9c]	>3.3
O=C(NCc1cccnc1)C1CCN(C(=O)c2cc3ccccc3n2Cc2ccc(Cl)cc2)CC1 [Compound 9m]	>8.7
O=C(NCc1ccccc1)C1CCN(C(=O)c2cc3sccc3n2Cc2ccc(Cl)cc2)CC1 [Compound 5b]	>9.9
Cc1ccc(CCNC(=O)C2CCN(C(=O)c3cc4ccccc4n3Cc3ccc(Cl)cc3)CC2)cc1 [Compound 9f]	14

----------
Collected CC50/IC50 (therapeutic index) values appear next to each entry.
system: WEEV replicon

COMPOUND	STUDY_TARGET	CC50/IC50 (therapeutic index)
C[C@@H](NC(=O)C1CCN(C(=O)c2cc3sccc3n2Cc2ccc(F)cc2)CC1)c1ccccc1 [Compound 5d]	WEEV replicon	11
O=C(NCc1ccncc1)C1CCN(C(=O)c2cc3ccccc3n2Cc2ccc(Cl)cc2)CC1 [Compound 9l]	WEEV replicon	>14
O=C(NCCc1ccccc1)C1CCN(C(=O)c2cc3ccccc3n2Cc2ccc(Cl)cc2)CC1 [Compound 9e]	WEEV replicon	4.1
O=C(NCc1cccc(Cl)c1)C1CCN(C(=O)c2cc3ccccc3n2Cc2ccc(Cl)cc2)CC1 [Compound 9j]	WEEV replicon	>6.5
O=C(NCc1ccccc1)C1CCN(C(=O)c2cc3ccccc3n2Cc2ccc(F)cc2)CC1 [Compound 9a]	WEEV replicon	>6.7
